molecular target: E. coli MurD (Escherichia coli); test: biochemical; settings: 0.25 h, Table S1, PKIS screening; read-out: RA [%] at 100 µM MurD
Just so you know, the groups by remaining activity at 100 µM go like this: 1: < 70%; 2: ≥ 70% and < 90%; 3: ≥ 90%

Worked examples follow.
COc1cc2ncn(-c3cc(OCc4ccccc4C(F)(F)F)c(C(N)=O)s3)c2cc1OC [GW843682X]	2
Nc1nccc(-c2c(-c3ccc(F)cc3)ncn2CCCN2CCOCC2)n1	3
COc1cccc(/C=N/Nc2ncnc3c2cnn3-c2cccc(OC)c2)c1 [GW829874X]	2
CCCN1CCC(Oc2cc(Nc3nc(Nc4cccc(F)c4C(N)=O)c4cc[nH]c4n3)c(OC)cc2Cl)CC1 [GSK1713088A]	1
CN1CCC(n2cnc(-c3ccc(F)cc3)c2-c2ccnc(NCCO)n2)CC1	3

Which of the defined bands does the recorded remaining activity at 100 µM of O=C(O[C@H]1CN[C@H](C#Cc2cc3ncnc(Nc4ccc(OCc5cccc(F)c5)c(Cl)c4)c3s2)C1)N1CCOCC1 [GW869810X] sit within?
1

# classify by remaining activity at 100 µM band: COc1cc(C=NNc2ncnc3c2cnn3-c2ccccc2)ccc1O [GW513184X]
2

Could you place CCS(=O)(=O)c1ccc(OC)c(Nc2ncc(-c3ccccc3Cl)o2)c1 [GW622055X] in its proper category? Many thanks.
1

Each compound maps to one class by remaining activity at 100 µM. Which class for COc1cc(Nc2nccc(Nc3ccc4c(C)n[nH]c4c3)n2)cc(OC)c1OC [GW612286X] ?
3

Given CCc1cccc(CC)c1/C=C/c1cncc(C(=O)NC)c1 [GW450241X] , name the class its remaining activity at 100 µM places it in.
2

---

biological target: E. coli MurF (Escherichia coli, UniProt P11880); experiment: biochemical; settings: 0.25 h, Table S1, PKIS screening; read-out: RA [%] at 100 µM MurF
Sequence (P11880 whole entry): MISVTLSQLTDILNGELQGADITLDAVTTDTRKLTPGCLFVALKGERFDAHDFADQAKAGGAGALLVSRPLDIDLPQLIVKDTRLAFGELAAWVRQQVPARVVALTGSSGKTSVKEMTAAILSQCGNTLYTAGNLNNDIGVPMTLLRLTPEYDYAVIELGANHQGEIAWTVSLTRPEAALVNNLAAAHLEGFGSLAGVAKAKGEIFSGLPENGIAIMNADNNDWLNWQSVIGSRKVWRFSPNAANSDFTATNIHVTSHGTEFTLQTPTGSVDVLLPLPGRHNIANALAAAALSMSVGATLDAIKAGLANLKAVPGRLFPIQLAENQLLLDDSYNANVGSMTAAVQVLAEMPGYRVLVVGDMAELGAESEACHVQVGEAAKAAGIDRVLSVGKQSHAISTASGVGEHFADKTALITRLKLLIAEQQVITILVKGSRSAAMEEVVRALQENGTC
Label yes when remaining activity at 100 µM is strictly below 90%; otherwise label no.

See these solved cases before continuing.
COc1cc(Nc2nccc(Nc3ccc4c(C)n[nH]c4c3)n2)cc(OC)c1OC [GW612286X]	no
c1cnn2ncc(-c3ccnc(Nc4ccc5c(c4)OCCO5)n3)c2c1 [GW806290X]	yes
O=C1NC(=O)C(c2ccc(Cl)cc2)=C1Nc1ccc(Cl)c(C(=O)O)c1 [SB-360741]	yes

Quick check: remaining activity at 100 µM of Nc1nonc1-c1nc2cnccc2n1C1CC1 [SB-736302] under 90%?
yes

Say whether its remaining activity at 100 µM is strictly beneath 90%. Entry: OCc1ccc(-c2nc(-c3ccccn3)c(-c3ccc4c(c3)OCO4)[nH]2)cc1 [SB-431533]
yes

Does the reported remaining activity at 100 µM of the following compound sit strictly below 90%? O=C(Nc1n[nH]c2cc(-c3ccc(F)cc3)ccc12)C1CC1 [SB-735467]
no

Below 90% on remaining activity at 100 µM? Entry CCS(=O)(=O)c1ccc(OC)c(Nc2ncc(-c3cccc(OC)c3)o2)c1 [GW580509X]
no

---

As shown below, each of these molecules has a reported RA (%) MurF value.
biological target: E. coli MurF (Escherichia coli); assay: biochemical; conditions: Table S3, aza stilbene compounds
Entry rule: numbers only, all in %.

Please give the documented RA (%) MurF of Cc1cc(-c2ccco2)cc(C)c1/C=C/c1cncc(-c2nn[nH]n2)c1
26

Using known records, supply RA (%) MurF for Cc1cc(O)cc(C)c1C=Cc1cncc(C(N)=O)c1
75

For the molecule CNC(=O)c1cncc(C=Cc2ccccc2Cl)c1 , give its measured RA (%) MurF value.
90

---

molecular target: E. coli MurC (Escherichia coli, UniProt P17952); experiment: Malachite green inhibition assay, MurC; assay type: biochemical; details: 0.25 h, Table S1, PKIS screening; read-out: RA [%] at 100 µM MurC
Sequence (P17952 whole entry): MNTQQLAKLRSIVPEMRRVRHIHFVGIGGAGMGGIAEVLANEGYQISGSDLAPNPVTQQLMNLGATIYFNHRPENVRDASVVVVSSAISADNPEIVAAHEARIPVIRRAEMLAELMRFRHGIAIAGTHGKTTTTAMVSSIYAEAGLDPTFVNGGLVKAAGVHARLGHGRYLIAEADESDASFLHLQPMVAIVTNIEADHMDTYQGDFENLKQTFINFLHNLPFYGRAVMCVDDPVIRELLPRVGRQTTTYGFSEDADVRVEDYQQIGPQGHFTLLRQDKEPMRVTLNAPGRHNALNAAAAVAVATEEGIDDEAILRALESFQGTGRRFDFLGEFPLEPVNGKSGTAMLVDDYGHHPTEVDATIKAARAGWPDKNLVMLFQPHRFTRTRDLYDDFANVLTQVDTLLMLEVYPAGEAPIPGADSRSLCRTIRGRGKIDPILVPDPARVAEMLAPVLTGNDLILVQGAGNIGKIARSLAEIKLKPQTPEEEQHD
quantity: remaining activity at 100 µM (%)
Report the value in % with no unit label.

Record excerpt, results attached:
CS(=O)(=O)CCNCc1cc(-c2cc3c(Nc4ccc(OCc5cccc(F)c5)c(Cl)c4)ncnc3s2)cs1 [GSK300014A]	88
Nc1nccc(-c2c(-c3ccc(F)cc3)nn3cc(C(F)(F)F)ccc23)n1 [GW568326X]	68
NS(=O)(=O)c1ccc(NN=C2C(=O)Nc3ccc(C(=O)NCc4ccncc4)cc32)cc1 [GW300657X]	75
O=C1NC(=O)C(c2ccccc2Cl)=C1Nc1cccc(O)c1 [SB-390527]	50

Provide remaining activity at 100 µM, tested on E. coli MurC (Escherichia coli, UniProt P17952), for O=C(Nc1n[nH]c2cc(-c3cc(F)ccc3F)ccc12)C1CC1 [SB-735465] .
59

Recall the reported remaining activity at 100 µM of COc1cc(Nc2ncc(-c3ccccc3)o2)cc(OC)c1OC [GW627512B] when tested on E. coli MurC (Escherichia coli, UniProt P17952).
98

---

molecular target: E. coli MurC (Escherichia coli, UniProt P17952); assay: Malachite green inhibition assay, MurC; assay type: biochemical; details: Table S3, aza stilbene compounds
# maps each entry to its RA (%) MurC
State the answer as a number, implicitly in %.

Examples from the recorded data:
CNC(=O)c1cncc(C=Cc2ccccc2Cl)c1	68
CNC(=O)Oc1cc(C)c(C=Cc2cncc(C(=O)NC)c2)c(C)c1	68
Cc1cc(-c2ccco2)cc(C)c1/C=C/c1cncc(-c2nn[nH]n2)c1	70

Check E. coli MurC (Escherichia coli, UniProt P17952) data and give RA (%) MurC for Cc1cc(O)cc(C)c1C=Cc1cncc(-c2nn[nH]n2)c1 .
70

---

target: E. coli MurF (Escherichia coli, UniProt P11880); assay: biochemical; conditions: 0.25 h, Table S1, PKIS screening; read-out: RA [%] at 100 µM MurF
Recorded remaining activity at 100 µM, one value per entry.
A number alone suffices; assume %.

In the examples that follow, each entry is paired with its recorded remaining activity at 100 µM.
Cn1cc(C=C2C(=O)Nc3cccnc32)c2ccccc21 [GW441756X]	89
c1ccc(-c2n[nH]cc2-c2ccnc(-c3ccc(OCCN4CCOCC4)cc3)c2)nc1 [GW695874X]	91

Return reported remaining activity at 100 µM for target or system E. coli MurF (Escherichia coli, UniProt P11880), item CS(=O)(=O)Nc1ccc(-c2ccc3c(NC(=O)C4CC4)n[nH]c3c2)cc1 .
92

---

target: E. coli MurC (Escherichia coli, UniProt P17952); test: Malachite green inhibition assay, MurC; format: biochemical; settings: 0.25 h, Table S1, PKIS screening; read-out: RA [%] at 100 µM MurC
quantity: remaining activity at 100 µM (%)
Response body: numeric value in %, unit text excluded.

Recorded results for 4 compounds are shown here.
COc1ccc2cc(-c3c(-c4ccncc4)nc(-c4ccc(S(C)(=O)=O)cc4C)n3C)ccc2c1 [SB-633825]	36
CCn1c(-c2nonc2N)nc2c(C#CC(C)(C)O)nc(OC[C@@H](N)c3ccccc3)cc21 [GSK938890A]	76
O=C1NC(=O)C(c2cccc(Cl)c2)=C1Nc1ccc(Cl)c(C(=O)O)c1 [SB-409513]	94
CCN(CC)Cc1ccc(Nc2nccc(-c3cnn4ncccc34)n2)cc1 [GW780056X]	78

Query compound follows.
// Input: N#Cc1c(NC(=O)c2ccc(F)cc2)sc2c1CCCC2 [SB-347804] . Output its remaining activity at 100 µM only.
87

---

Measured remaining activity at 100 µM, listed per entry.
molecular target: E. coli MurD (Escherichia coli, UniProt P14900); assay: biochemical; details: 0.25 h, Table S1, PKIS screening; read-out: RA [%] at 100 µM MurD
Sequence (P14900 whole entry): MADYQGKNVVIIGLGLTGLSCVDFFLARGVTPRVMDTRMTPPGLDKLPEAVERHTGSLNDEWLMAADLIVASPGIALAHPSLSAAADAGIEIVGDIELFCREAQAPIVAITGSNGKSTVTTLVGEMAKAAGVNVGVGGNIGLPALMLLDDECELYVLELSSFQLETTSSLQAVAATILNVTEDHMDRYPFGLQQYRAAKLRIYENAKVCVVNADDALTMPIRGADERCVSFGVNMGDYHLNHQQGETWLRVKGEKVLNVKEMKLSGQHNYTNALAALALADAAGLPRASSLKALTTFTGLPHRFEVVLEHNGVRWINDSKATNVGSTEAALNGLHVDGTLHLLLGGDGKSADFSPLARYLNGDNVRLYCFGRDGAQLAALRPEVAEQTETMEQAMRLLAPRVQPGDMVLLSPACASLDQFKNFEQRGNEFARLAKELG
The answer is to be given in %; state only the numeric part.

COC(=O)Nc1nc2ccc(Sc3ccc(NC(=O)Nc4cc(C(F)(F)F)ccc4F)cc3)cc2[nH]1 [GW607049C]	80

Provide measured remaining activity at 100 µM on E. coli MurD (Escherichia coli, UniProt P14900) for CCS(=O)(=O)c1ccc(OC)c(Nc2ncc(-c3cccc(OC)c3)o2)c1 [GW580509X] please.
82

Give E. coli MurD (Escherichia coli, UniProt P14900) remaining activity at 100 µM for the following compound: CN1CCC(n2cnc(-c3ccc(F)cc3)c2-c2ccnc(N)n2)CC1 [SB-220455]
81

---

# maps each entry to its remaining activity at 100 µM
molecular target: UniProtKB P17952; assay: Malachite green inhibition assay, MurC; format: biochemical; settings: 0.25 h, Table S1, PKIS screening; read-out: RA [%] at 100 µM MurC
Respond with the bare value in %.

Some solved entries appear below for comparison.
c1ccc(-c2n[nH]cc2-c2ccnc(-c3ccc(OCCN4CCOCC4)cc3)c2)nc1 [GW695874X]	79
COc1ccccc1-c1cc(/C=C2\C(=O)Nc3ncc(Br)cc32)cc(Br)c1O [GW442130X]	100
Cc1nn(C)c2cc(N(C)c3ccnc(Nc4cccc(S(N)(=O)=O)c4)n3)ccc12 [GW770220A]	91
COC(=O)c1cncc(/C=C/c2c(C)cc(O)cc2C)c1 [GW406731X]	98
C/C(Nc1ccc(S(N)(=O)=O)cc1)=C1/C(=O)Nc2ccccc21 [GW335962X]	72
Cc1cc(O)cc(C)c1/C=C/c1cncc(C(N)=O)c1 [GW435821X]	89
CC1=C(C(=O)Nc2cc(Cl)c3[nH]ncc3c2)C(c2ccc(C(F)(F)F)cc2)CC(=O)N1 (stereo not drawn) [GSK466317A]	80
Nc1ncnc2occ(-c3ccc(NC(=O)Nc4cc(C(F)(F)F)ccc4F)cc3)c12 [GW770249A]	60

State, in one line, measured remaining activity at 100 µM of COc1ccc(-c2nn3ncccc3c2-c2ccnc(Nc3ccc(F)c(F)c3)n2)cc1 [GW827396X]
79

Query remaining activity at 100 µM for NS(=O)(=O)c1cccc(N/C=C2\C(=O)Nc3ccccc32)c1 [GW275616X]
84

Recall and state the measured remaining activity at 100 µM for O=C(Nc1ccc(Oc2ccc3nc(NC(=O)c4ccccc4)[nH]c3c2)cc1)Nc1cc(C(F)(F)F)ccc1F [GW709042A] .
100

Fill in remaining activity at 100 µM for record CCn1c(-c2nonc2N)nc2c(C#CC(C)(C)O)ncc(OC[C@@H]3CCCN3)c21 [GSK614526A]
65

Provide one value: measured remaining activity at 100 µM of COc1ccc2ncnc(Nc3ccc(OCc4ccccc4)cc3)c2c1 [GI261520A]
58

State its remaining activity at 100 µM: CCNC(=O)O[C@H]1CN[C@H](C#Cc2cc3ncnc(Nc4ccc(OCc5cccc(F)c5)c(Cl)c4)c3s2)C1 [GSK192082A]
39

Determine its reported remaining activity at 100 µM: NC(=O)c1cc(-c2ccc(F)cc2)cc(-c2ccncc2)c1N [GSK620503A]
94
